- tested_on: Dual specificity tyrosine-phosphorylation-regulated kinase 1A (Rattus norvegicus)
- assay_details: Inhibition of recombinant 6His-tagged rat DYRK1A (1 to 502 residues) expressed in Escherichia coli BL21 (DE3) cells using KISGRLSPIMTEQ as substrate incubated for 30 mins in presence of ATP by absorbance based assay
quantity: IC50 (µM)
Numbers only, in µM.

Please report the recorded IC50 for `Oc1ccc(-c2cnc3[nH]cc(-c4ccc(F)cc4)c3c2)cc1O` .
0.02

----------
- assay_details: Drug concentration in wildtype mouse brain at 50 mg/kg by UHPLC-MS/MS analysis
- Assay type: ADME, organism-based
- protocol_conditions: in vivo, read-out: Ct
quantity: concentration (nM)
Give bare numbers, in nM.

Please report the recorded concentration for O=C(c1cc(O)c(O)c(O)c1)N1Cc2c(O)cc(O)cc2CC1c1cc(O)c(O)c(O)c1 (stereo unspecified) .
38.2

Data credit: ChEMBL document CHEMBL5518187
